# key: entry, value: viability, T/C
Tested on: 327498-153-R-J2-PDC complex spheroid growth, % test/control;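 note: spheroids exposed to compound for 7 days after 3 days of growth; 100% = DMSO vehicle control wells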
assay.info: Anticancer human tumor 327498-153-R-J2-PDC patient-derived uterine carcinosarcoma cell line growth inhibition [Asc]
particulars: second compound 1 µM; first compound 0.000316 µM; hits give low values
Record the value in %, omitting the unit from your answer.

Use these answered entries as a reference point.
NC1CCC(NC2CC2c2ccccc2)CC1 (centres undefined) + Cc1c(S(C)(=O)=O)c(-c2cc(F)cc(N3CCN(c4ccc(NS(=O)(=O)c5ccc(NC(CCN6CCC(C(=O)OCCCP(=O)(O)O)CC6)CSc6ccccc6)c(S(=O)(=O)C(F)(F)F)c5)cc4)CC3)c2)c(-c2ccc(Cl)cc2)n1C(C)C = 94.2
NC1CCC(NC2CC2c2ccccc2)CC1 (centres undefined) + CNC(C)C(=O)NC1CN(S(=O)(=O)c2cccc(S(=O)(=O)N3CCC4CCC(C(=O)NC(c5ccccc5)c5ccccc5)N4C(=O)C(NC(=O)C(C)NC)C3)c2)CCC2CCC(C(=O)NC(c3ccccc3)c3ccccc3)N2C1=O = 106
Cn1ncnc1[C@H]1c2n[nH]c(=O)c3cc(F)cc(c23)N[C@@H]1c1ccc(F)cc1 + CNC(C)C(=O)NC1CN(S(=O)(=O)c2cccc(S(=O)(=O)N3CCC4CCC(C(=O)NC(c5ccccc5)c5ccccc5)N4C(=O)C(NC(=O)C(C)NC)C3)c2)CCC2CCC(C(=O)NC(c3ccccc3)c3ccccc3)N2C1=O = 99.3

Kindly consider the entry below.
[Q] Write down viability, T/C measured for item Cn1ncnc1[C@H]1c2n[nH]c(=O)c3cc(F)cc(c23)N[C@@H]1c1ccc(F)cc1 + Cc1c(S(C)(=O)=O)c(-c2cc(F)cc(N3CCN(c4ccc(NS(=O)(=O)c5ccc(NC(CCN6CCC(C(=O)OCCCP(=O)(O)O)CC6)CSc6ccccc6)c(S(=O)(=O)C(F)(F)F)c5)cc4)CC3)c2)c(-c2ccc(Cl)cc2)n1C(C)C
[A] 99.3
